# TEST DETAILS: self-splicing fitness, log relative to wild type (ln ratio); higher = more splicing; Tetrahymena group I intron in knt gene, E. coli kanamycin selection, DiMSum; sequences stand for … in CUCUCU…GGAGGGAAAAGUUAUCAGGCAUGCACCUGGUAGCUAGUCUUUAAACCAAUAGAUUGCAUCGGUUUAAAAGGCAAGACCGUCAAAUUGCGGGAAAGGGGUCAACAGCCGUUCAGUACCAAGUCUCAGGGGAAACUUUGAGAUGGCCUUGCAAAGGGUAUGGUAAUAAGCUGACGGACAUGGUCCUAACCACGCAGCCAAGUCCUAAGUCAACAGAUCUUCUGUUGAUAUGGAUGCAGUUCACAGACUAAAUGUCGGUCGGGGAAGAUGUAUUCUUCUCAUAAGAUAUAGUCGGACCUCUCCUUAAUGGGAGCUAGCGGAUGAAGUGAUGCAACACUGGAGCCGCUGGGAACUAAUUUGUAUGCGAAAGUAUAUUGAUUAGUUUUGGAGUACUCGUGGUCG;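 further: selection with 25 µg/mL kanamycin versus none on LB agar overnight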
# MEASUREMENT SETUP: 37 °C
Answer each item with its documented self-splicing fitness (ln).
No unit in the answer, only the number.

Query: Output self-splicing fitness (ln) of `AAUGAGCAAUAUUACGACGA`
Reply: -3.22

Query: Consider the sequence `UGUCAGCAAUAUUACGUAAU` and give its recorded self-splicing fitness (ln).
Reply: -0.593

Query: Please look at this sequence and report its self-splicing fitness (ln): `GAGAAGCAAUAUUACGGUGC`
Reply: 0.59

Query: # return recorded self-splicing fitness (ln) for entry `UGCUAGCAAUAUUACGCGGU`
Reply: -2.36

Query: Provide only the value of recorded self-splicing fitness (ln) for `AAGCAGCAAUAUUACGGCAU`
Reply: 0.127

Query: // Input: `UAUUAGCAAUAUUACGGACG` . Output its self-splicing fitness (ln) only.
Reply: 0.171

Query: Identify the reported self-splicing fitness (ln) for the following entry. `GGUUAGCAAUAUUACGUCCG`
Reply: -0.617

Query: Dear colleague, please send me the reported self-splicing fitness (ln) for `CUAGAGCAAUAUUACGACUU` when you can.
Reply: -2.51

----------
# TEST DETAILS: self-splicing fitness, log relative to wild type (ln ratio); higher = more splicing; Tetrahymena group I intron in knt gene, E. coli kanamycin selection, DiMSum; sequences stand for … in CUCUCU…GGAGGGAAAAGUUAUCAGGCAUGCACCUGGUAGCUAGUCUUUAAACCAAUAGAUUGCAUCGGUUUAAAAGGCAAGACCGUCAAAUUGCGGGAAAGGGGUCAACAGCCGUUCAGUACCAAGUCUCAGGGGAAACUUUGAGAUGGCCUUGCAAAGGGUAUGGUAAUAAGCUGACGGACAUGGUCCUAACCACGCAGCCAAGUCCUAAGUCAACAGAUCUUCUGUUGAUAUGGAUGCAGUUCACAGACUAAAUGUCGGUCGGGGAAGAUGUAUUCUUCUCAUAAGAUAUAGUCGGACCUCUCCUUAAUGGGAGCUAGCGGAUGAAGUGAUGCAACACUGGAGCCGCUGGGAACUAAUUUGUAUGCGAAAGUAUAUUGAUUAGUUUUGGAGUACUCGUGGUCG
# MEASUREMENT SETUP: 30 °C
Assign self-splicing fitness (ln) to each entry below.
// response body must contain only the number

Query: Specify measured self-splicing fitness (ln) for `UUCUAGCAAUAUUACGAGCA` .
Reply: -0.992

Query: Look up and report measured self-splicing fitness (ln) for this entry: `UUUGAGCAAUAUUACGACUA`
Reply: -1.98

Query: Provide only the value of recorded self-splicing fitness (ln) for `GGCCAGCAAUAUUACGCCAC`
Reply: -4.58

Query: For the sequence `UGCCAGCAAUAUUACGGAAU` , report self-splicing fitness (ln).
Reply: -2.74

Query: Tell me its self-splicing fitness (ln) given `ACUAAGCAAUAUUACGGUCA` as the entry.
Reply: -1.57

Query: Query self-splicing fitness (ln) for `GCUAAGCAAUAUUACGACGG`
Reply: -1.8

Query: Supply recorded self-splicing fitness (ln) for `AGUAAGCAAUAUUACGUAGG` here.
Reply: -3.99

Query: Return reported self-splicing fitness (ln). Input sequence: `GCUUAGCAAUAUUACGGUUG`
Reply: -3.95

Query: Return self-splicing fitness (ln) (reported value) for this sequence: `AAGAAGCAAUAUUACGGAAA`
Reply: -2.17

Query: Tell me self-splicing fitness (ln) reported for `GUAAAGCAAUAUUACGGCCC`
Reply: 0.25

Query: For the sequence `UGUUAGCAAUAUUACGAUCA` , give its reported self-splicing fitness (ln).
Reply: -0.0398

Query: Complete the entry with self-splicing fitness (ln) for `CCACAGCAAUAUUACGCACA`
Reply: -2.44

Query: Look up self-splicing fitness (ln) of `ACCGAGCAAUAUUACGCCGC` and report it.
Reply: -2.66

Query: Using the record for `UAAGAGCAAUAUUACGUCAU` , state its measured self-splicing fitness (ln).
Reply: -2.21

Query: # return recorded self-splicing fitness (ln) for input `CACAAGCAAUAUUACGCUAG`
Reply: -2.72

Query: Read off the recorded self-splicing fitness (ln) for `GGGCAGCAAUAUUACGCAUU`
Reply: -0.0216

Query: Supply measured self-splicing fitness (ln) of `CAAAAGCAAUAUUACGUUCC` in your reply.
Reply: -2.34

Query: Read off the recorded self-splicing fitness (ln) for `GACAAGCAAUAUUACGUUCU`
Reply: -2.9

Query: Supply self-splicing fitness (ln) value. Item: `UCUAAGCAAUAUUACGCUAG`
Reply: -2.73

Query: Query self-splicing fitness (ln) for `AAUCAGCAAUAUUACGAGGA`
Reply: -2.13

Query: Answer with the recorded self-splicing fitness (ln) of `CUUCAGCAAUAUUACGUUCU` only.
Reply: -4.03

Query: Identify the reported self-splicing fitness (ln) for the following entry. `AUGAAGCAAUAUUACGCGGU`
Reply: -2.88

Query: Report measured self-splicing fitness (ln); entry is `CUAGAGCAAUAUUACGGCUU`
Reply: -2.92

Query: Quick one: give measured self-splicing fitness (ln) for `GGGAAGCAAUAUUACGAUCU`
Reply: -0.627

Query: Indicate its recorded self-splicing fitness (ln); the sequence in question is `CCGUAGCAAUAUUACGUUGU`
Reply: -3.87

Query: Hello, please tell me recorded self-splicing fitness (ln) for this one: `GGUAAGCAAUAUUACGUAGC`
Reply: -0.417

Query: Read the entry `UUUGAGCAAUAUUACGUAUC` and write its reported self-splicing fitness (ln).
Reply: -4

Query: Output measured self-splicing fitness (ln) for this item: `UCGCAGCAAUAUUACGUAAA`
Reply: -1.69

Query: Tell me measured self-splicing fitness (ln) for `CGGAAGCAAUAUUACGAUUC` please.
Reply: -3.95

Query: Identify the reported self-splicing fitness (ln) for the following entry. `CAUCAGCAAUAUUACGUACA`
Reply: -2.24

Query: Tell me measured self-splicing fitness (ln) for `GCCCAGCAAUAUUACGGGGA` please.
Reply: -0.813

Query: Give the value of self-splicing fitness (ln) reported for the following: `CUUAAGCAAUAUUACGUAGC`
Reply: -3.71

Query: Tell me its self-splicing fitness (ln) given `GUAAAGCAAUAUUACGUGCU` as the entry.
Reply: -2.34

Query: For the sequence `UCCAAGCAAUAUUACGUGAU` , give its reported self-splicing fitness (ln).
Reply: -3.53

----------
# TEST DETAILS: self-splicing fitness, log relative to wild type (ln ratio); higher = more splicing; Tetrahymena group I intron in knt gene, E. coli kanamycin selection, DiMSum; sequences stand for … in CUCUCU…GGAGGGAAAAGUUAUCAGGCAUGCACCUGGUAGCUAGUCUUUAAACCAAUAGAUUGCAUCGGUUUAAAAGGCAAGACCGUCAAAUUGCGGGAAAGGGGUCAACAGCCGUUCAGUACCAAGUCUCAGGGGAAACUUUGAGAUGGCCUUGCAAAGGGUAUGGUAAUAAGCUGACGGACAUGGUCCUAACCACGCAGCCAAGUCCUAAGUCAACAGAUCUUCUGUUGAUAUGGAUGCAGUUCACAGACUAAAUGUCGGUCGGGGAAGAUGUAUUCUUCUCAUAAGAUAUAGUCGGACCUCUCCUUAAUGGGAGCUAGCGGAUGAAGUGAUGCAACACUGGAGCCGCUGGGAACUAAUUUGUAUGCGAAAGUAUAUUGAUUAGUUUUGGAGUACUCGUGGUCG
# MEASUREMENT SETUP: 30 °C
Tag: Condition met if measured self-splicing fitness (ln) is not below -3, Condition not met if it is.

Query: Could you verify whether the entry `AGUCAGCAAUAUUACGCGUC` shows self-splicing fitness (ln) of no less than -3?
Reply: Condition met

Query: Please tell me: is the sequence `UUUAAGCAAUAUUACGGUAA` at or over -3 in terms of self-splicing fitness (ln)?
Reply: Condition met

Query: In plain terms: is recorded self-splicing fitness (ln) at least -3 for `AGGCAGCAAUAUUACGGGAU` ?
Reply: Condition met

Query: Could you please find out whether `CGCAAGCAAUAUUACGGGUC` has self-splicing fitness (ln) that meets -3 or exceeds it?
Reply: Condition not met

Query: Does `CUUGAGCAAUAUUACGUCAC` have a reported self-splicing fitness (ln) of at least -3?
Reply: Condition not met

Query: Test whether the sequence `AGUGAGCAAUAUUACGCUGC` records self-splicing fitness (ln) of -3 or higher.
Reply: Condition met

Query: Can `GAGGAGCAAUAUUACGAGGC` be said to have self-splicing fitness (ln) at or above -3?
Reply: Condition not met

Query: Has `GGACAGCAAUAUUACGGCAA` a recorded self-splicing fitness (ln) greater than or equal to -3?
Reply: Condition met

Query: Record `CACCAGCAAUAUUACGUCCA` ; criterion: self-splicing fitness (ln) no lower than -3. Met?
Reply: Condition not met

Query: Form field: self-splicing fitness (ln) at least -3? Entry: `AAAUAGCAAUAUUACGACCA`
Reply: Condition met

Query: Could you tell me if the measured self-splicing fitness (ln) of `AAGGAGCAAUAUUACGUCAG` reaches -3 or more?
Reply: Condition not met

Query: Has `CGAAAGCAAUAUUACGACGU` a recorded self-splicing fitness (ln) greater than or equal to -3?
Reply: Condition met

Query: Is the recorded value of self-splicing fitness (ln) equal to or greater than -3 for this sequence? `AGCUAGCAAUAUUACGAAAU`
Reply: Condition met

Query: Does self-splicing fitness (ln) meet or surpass -3 for `GAGAAGCAAUAUUACGAGAA` ?
Reply: Condition met

Query: Decide: is the reported value of self-splicing fitness (ln) for `GCGGAGCAAUAUUACGGUCC` equal to or greater than -3?
Reply: Condition met

Reference source for all entries: the supplement of paper PMC7877785
